Consider the following compounds and their measured Cmax readings.
Test Details: Mouse Pharmacokinetic Experiment (plasma and brain)
Format: in vivo, Male ICR mice
Measurement Setup: male, ICR; mouse plasma; oral (po) dose 1 mg/kg
Answer with the figure and its unit, nothing else.

- Compound: "O=C1CCc2ccc(CCN3CCN(c4cc(F)cc5sccc45)CC3)cc2N1 [Reference compound, reference compound]"
  Cmax: "27.5 ng/mL"

Here is the next item to consider.
For record O=C1CCc2ccc(CCN3CCN(c4cc(F)cc5occc45)CC3)cc2N1 the listed Cmax is 68.4 ng/mL

###

Test Details: Mouse Pharmacokinetic Experiment (plasma and brain)
Format: in vivo, Male ICR mice
Measurement Setup: in vivo; mouse plasma; oral (po) dose 1 mg/kg
Value Kind: Cmax (ng/mL)
Number in ng/mL, nothing else.

For record O=C1CCc2ccc(CCN3CCN(c4cc(F)cc5c4CCO5)CC3)cc2N1 the listed Cmax is 72.8

###

Consider the following compounds and their measured bioavailability readings.
Test Details: Mouse Pharmacokinetic Experiment (plasma and brain)
Format: in vivo, Male ICR mice
Measurement Setup: male, ICR, plasma; mouse; iv 0.3 mg/kg, po 1 mg/kg
Number in %, nothing else.

- Compound: "O=C1CCc2ccc(CCN3CCN(c4cc(F)cc5occc45)CC3)cc2N1 [Example 1]"
  Value Kind: "bioavailability"
  Unit Spec: "%"
  Test Value: 100

Here is the next item to consider.
For record O=C1CCc2ccc(CCN3CCN(c4cc(F)cc5sccc45)CC3)cc2N1 [Reference compound, reference compound] the listed bioavailability is 50

###

Target Desc: human SERT (Homo sapiens)
Construct: expressed in transfected cells; host or cells: HEK-293 (HEK-hSERT cells)
Sequence (P31645 whole entry): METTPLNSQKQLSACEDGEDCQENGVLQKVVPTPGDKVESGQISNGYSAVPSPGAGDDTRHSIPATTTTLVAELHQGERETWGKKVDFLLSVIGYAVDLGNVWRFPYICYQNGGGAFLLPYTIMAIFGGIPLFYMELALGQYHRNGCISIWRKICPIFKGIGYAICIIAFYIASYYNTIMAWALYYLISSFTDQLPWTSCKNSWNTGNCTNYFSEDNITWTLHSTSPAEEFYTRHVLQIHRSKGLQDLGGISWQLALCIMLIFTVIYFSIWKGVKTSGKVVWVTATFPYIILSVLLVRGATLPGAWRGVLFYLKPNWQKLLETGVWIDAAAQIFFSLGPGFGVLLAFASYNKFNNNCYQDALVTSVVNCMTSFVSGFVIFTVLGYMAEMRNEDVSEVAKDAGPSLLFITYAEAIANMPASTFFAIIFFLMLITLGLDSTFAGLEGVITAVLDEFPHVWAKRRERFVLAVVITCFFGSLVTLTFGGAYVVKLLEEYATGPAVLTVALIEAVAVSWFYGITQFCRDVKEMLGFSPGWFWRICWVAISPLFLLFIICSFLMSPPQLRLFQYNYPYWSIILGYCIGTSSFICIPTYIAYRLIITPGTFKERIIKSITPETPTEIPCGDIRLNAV
Test Details: 5-HT Transporter Inhibitory Activity Assay (Neurotransmitter transporter uptake assay kit)
Assay type: cell-based
Measurement Setup: HEK-293 cells expressing human SERT
Consider the following molecules and their measured pIC50 readings.
Please express pIC50 as -log10 of the molar concentration.

- Molecule: "O=C1CCc2ccc(CCN3CCN(c4cc(F)cc5c4OCO5)CC3)cc2N1 [Example 39]"
  Target Desc: "human SERT (Homo sapiens)"
  pIC50: 7.97
- Molecule: "O=C1CCc2ccc(CCN3CCN(c4cc(F)cc5sccc45)CC3)cc2N1 [Reference compound, reference compound]"
  Target Desc: "human SERT (Homo sapiens)"
  pIC50: 7.82
- Molecule: "O=C1CCc2ccc(CCN3CCN(c4cc(F)cc5occc45)CC3)cc2N1 [Example 1]"
  Target Desc: "human SERT (Homo sapiens)"
  pIC50: 8.11
- Molecule: "[2H]C1([2H])Cc2ccc(CCN3CCN(c4cc(F)cc5c4CCO5)CC3)cc2NC1=O [Example 22]"
  Target Desc: "human SERT (Homo sapiens)"
  pIC50: 7.91
- Molecule: "O=C1CCc2ccc(CCN3CCN(c4cc(F)cc5c4OCC5)CC3)cc2N1 [Example 5]"
  Target Desc: "human SERT (Homo sapiens)"
  pIC50: 7.89
- Molecule: "[2H]C1([2H])C(=O)Nc2cc(CCN3CCN(c4cc(F)cc5occc45)CC3)ccc2C1([2H])[2H] [Example 43]"
  Target Desc: "human SERT (Homo sapiens)"
  pIC50: 8.13
- Molecule: "O=C1CCc2ccc(CCN3CCN(c4cc(F)cc5ccoc45)CC3)cc2N1 [Example 6]"
  Target Desc: "human SERT (Homo sapiens)"
  pIC50: 7.92
- Molecule: "O=C1CCc2ccc(CCN3CCN(c4cc(F)cc5ccsc45)CC3)cc2N1 [Example 15]"
  Target Desc: "human SERT (Homo sapiens)"
  pIC50: 7.59

Here is the next item to consider.
For record O=c1ccc2ccc(CCN3CCN(c4cc(F)cc5c4CCO5)CC3)cc2[nH]1 [Example 7] the listed pIC50 is 8.05

Numbers sourced from patent EP4786467A1.
